System: pulmonary fibrosis
run_description: Pulmonary toxicity (pulmonary fibrosis) in mice
experimental_parameters: ICR mice, 5 mg/kg i.p. once a day for 10 days; points 0, 1, 2, 4, 6
Recorded Grade: Total score of pulmonary fibrosis/total number of samples for the following molecules

Here's what some known entries look like.
Cc1c(N)nc(C(CC(N)=O)NCC(N)C(=O)NCCCNC(C)c2ccccc2)nc1C(=O)NC(C(=O)NC(C)C(O)C(C)C(=O)NC(C(=O)NCCc1nc(-c2nc(C(=O)NCCCNC(C)c3ccccc3)cs2)cs1)C(C)O)C(OC1OC(CO)C(O)C(O)C1OC1OC(CO)C(O)C(OC(N)=O)C1O)c1cnc[nH]1 (stereo not drawn) [Compound 22]: 1/21
Cc1c(N)nc(C(CC(N)=O)NCC(N)C(=O)NCCC[N+](C)(CCCN(Cc2ccccc2)Cc2ccccc2)Cc2ccccc2)nc1C(=O)NC(C(=O)NC(C)C(O)C(C)C(=O)NC(C(=O)NCCc1nc(-c2nc(C(=O)NCCC[N+](C)(CCCN(Cc3ccccc3)Cc3ccccc3)Cc3ccccc3)cs2)cs1)C(C)O)C(OC1OC(CO)C(O)C(O)C1OC1OC(CO)C(O)C(OC(N)=O)C1O)c1cnc[nH]1 (stereo not drawn) [Compound 49]: 0/9
Cc1c(N)nc(C(CC(N)=O)NCC(N)C(=O)NCCCNC(C)c2ccccc2)nc1C(=O)NC(C(=O)NC(C)C(O)C(C)C(=O)NC(C(=O)NCCc1nc(-c2nc(C(=O)NCCCN(C)CCCNCc3ccc(Cl)cc3)cs2)cs1)C(C)O)C(OC1OC(CO)C(O)C(O)C1OC1OC(CO)C(O)C(OC(N)=O)C1O)c1cnc[nH]1 (stereo not drawn) [Compound 39]: 2/27
Cc1c(N)nc(C(CC(N)=O)NCC(N)C(=O)NCCCNC(C)c2ccccc2)nc1C(=O)NC(C(=O)NC(C)C(O)C(C)C(=O)NC(C(=O)NCCc1nc(-c2nc(C(=O)NCCC[N+](C)(CCCN(Cc3ccccc3)Cc3ccccc3)Cc3ccccc3)cs2)cs1)C(C)O)C(OC1OC(CO)C(O)C(O)C1OC1OC(CO)C(O)C(OC(N)=O)C1O)c1cnc[nH]1 (stereo not drawn) [Compound 47]: 0/24

The recorded Grade: Total score of pulmonary fibrosis/total number of samples for entry Cc1c(N)nc(C(CC(N)=O)NCC(N)C(=O)NCCCNC(C)c2ccccc2)nc1C(=O)NC(C(=O)NC(C)C(O)C(C)C(=O)NC(C(=O)NCCc1nc(-c2nc(C(=O)NCCC[N+](C)(C)CCCN(Cc3ccccc3)Cc3ccccc3)cs2)cs1)C(C)O)C(OC1OC(CO)C(O)C(O)C1OC1OC(CO)C(O)C(OC(N)=O)C1O)c1cnc[nH]1 (stereo not drawn) [Compound 52] equals 0/27

Looking up CCCCCCCCNC(=O)C(N)CNC(CC(N)=O)c1nc(N)c(C)c(C(=O)NC(C(=O)NC(C)C(O)C(C)C(=O)NC(C(=O)NCCc2nc(-c3nc(C(=O)NCCC[N+](CC)(CC)CCCN(Cc4ccccc4)Cc4ccccc4)cs3)cs2)C(C)O)C(OC2OC(CO)C(O)C(O)C2OC2OC(CO)C(O)C(OC(N)=O)C2O)c2cnc[nH]2)n1 (stereo not drawn) [Compound 56] , I found its Grade: Total score of pulmonary fibrosis/total number of samples recorded as 0/27

====

Tested on: pulmonary fibrosis
run_description: Pulmonary toxicity (pulmonary fibrosis) in mice
experimental_parameters: ICR mice, 5 mg/kg i.p. once a day for 10 days; points 0, 1, 2, 4, 6
Below: a set of entries, each annotated with reported Grade: Total score of pulmonary fibrosis/total number of samples (%).
# unit: % | format: bare number

Some entries whose results are on file:
Cc1c(N)nc(C(CC(N)=O)NCC(N)C(=O)NCCC[N+](C)(CCCN(Cc2ccccc2)Cc2ccccc2)Cc2ccccc2)nc1C(=O)NC(C(=O)NC(C)C(O)C(C)C(=O)NC(C(=O)NCCc1nc(-c2nc(C(=O)NCCC[N+](C)(CCCN(Cc3ccccc3)Cc3ccccc3)Cc3ccccc3)cs2)cs1)C(C)O)C(OC1OC(CO)C(O)C(O)C1OC1OC(CO)C(O)C(OC(N)=O)C1O)c1cnc[nH]1 (stereo not shown) [Compound 49]: 0
CCCCN(CCCC)CCCNC(=O)C(N)CNC(CC(N)=O)c1nc(N)c(C)c(C(=O)NC(C(=O)NC(C)C(O)C(C)C(=O)NC(C(=O)NCCc2nc(-c3nc(C(=O)NCCCNC(C)c4ccccc4)cs3)cs2)C(C)O)C(OC2OC(CO)C(O)C(O)C2OC2OC(CO)C(O)C(OC(N)=O)C2O)c2cnc[nH]2)n1 (stereo not shown) [Compound 34]: 0
CCCCCCCCNC(=O)C(N)CNC(CC(N)=O)c1nc(N)c(C)c(C(=O)NC(C(=O)NC(C)C(O)C(C)C(=O)NC(C(=O)NCCc2nc(-c3nc(C(=O)NCCCN(C)CCCNCc4ccc(C#N)cc4)cs3)cs2)C(C)O)C(OC2OC(CO)C(O)C(O)C2OC2OC(CO)C(O)C(OC(N)=O)C2O)c2cnc[nH]2)n1 (stereo not shown) [Compound 62]: 0

Kindly consider the entry below.
Measured on pulmonary fibrosis, Cc1c(N)nc(C(CC(N)=O)NCC(N)C(=O)NCCN2CCNCC2)nc1C(=O)NC(C(=O)NC(C)C(O)C(C)C(=O)NC(C(=O)NCCc1nc(-c2nc(C(=O)NCCCNC(C)c3ccccc3)cs2)cs1)C(C)O)C(OC1OC(CO)C(O)C(O)C1OC1OC(CO)C(O)C(OC(N)=O)C1O)c1cnc[nH]1 (stereo not shown) [Compound 33] has a documented Grade: Total score of pulmonary fibrosis/total number of samples (%) of 41
